assayed_system: sulfated human cationic trypsin purified from the conditioned medium of transfected HEK 293T cells (human)
method: equilibrium binding assay (free trypsin activity on a fluorogenic substrate); fixed trypsin incubated with increasing SPINK1, 0.2 ml, 0.1 M Tris-HCl (pH 8.0), 150 mM NaCl, 1 mM CaCl2, 0.05% Tween 20, 15 h; free trypsin measured with Z-Gly-Pro-Arg-AMC; apparent KD, global fit of at least three experiments
Overview of recorded Kd for various binders
Give the value in nM but do not write nM after it.

SPINK1 variant N34S, C-terminal 10His tag (natural protein) DSLGREAKCYSELNGCTKIYDPVCGTDGNTYPNECVLCFENRKRQTSILIQKSGPC    0.0375

Now for another entry.
Qu. Sample serine protease inhibitor Kazal type 1 (SPINK1), wildtype, C-terminal 10His tag (natural protein) DSLGREAKCYNELNGCTKIYDPVCGTDGNTYPNECVLCFENRKRQTSILIQKSGPC — what was its Kd?
Ans. 0.0402
